Source: PubChem BioAssay AID1159580

- assay.protocol: chemical genetic growth profiling, strain panel (AID 1159580);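 also: tested at 20 µM; growth read once vehicle control cultures reached saturation at 30 °C; 1 = growth at the plate median or of vehicle wells; lower values mean less growth of the strain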
- condition.description: S. cerevisiae deletion strains, growth OD, locus YNL067W, strain RPL9B, active compounds read low
In all, about 5,500 compounds went through this assay and about 2,000 (36%) were called active. About 18% were inconclusive and are not listed. Some of the results follow.
observable: normalized growth

compound: CCOC(=O)NC1=C(C2CC2)C(=O)C(NC(=O)OCC)=C(C2CC2)C1=O
observable: normalized growth
measured.result: 1.03
--
compound: COc1ccc(Cl)cc1C(=O)NCCc1ccc(S(=O)(=O)NC(=O)NC2CCCCC2)cc1
observable: normalized growth
measured.result: 0.951
--
compound: CNC(C)C(O)c1ccccc1 (configuration not stated)
observable: normalized growth
measured.result: 1
--
compound: CC/C(=C(/CC)c1ccc(O)cc1)c1ccc(O)cc1
observable: normalized growth
measured.result: 0.933
--
compound: CC(=O)OC1CN2CCC1CC2 (configuration not stated)
observable: normalized growth
measured.result: 1.04
--
compound: CCOCN(C(=O)CCl)c1c(C)cccc1CC
observable: normalized growth
measured.result: 0.995
--
compound: COC(=O)[C@@]1(C)CCC[C@]2(C)c3ccc(O)c(C(C)C)c3CCC12 (some centres not stated)
observable: normalized growth
measured.result: 0.903
